- Test system: T-47D breast
- protocol-summary: NCI-60 one-dose screen, 48 h
- experimental-setup: 10 µM unless noted
This is part of a sample that, as a whole, favours compounds with a hit. Of some 83,000 tested, about 20% had one in any assay. Active and inactive are the calls of the source. How the source made its calls: active means growth percent below 10; inactive means the rest.
Classes used: active, inactive

[
  {
    "compound": "O=C(N=Nc1c(O)[nH]c2ccccc12)c1oc2ccccc2c1CN1CCN(c2ccccc2)CC1",
    "label-class": "active"
  },
  {
    "compound": "COc1ccc2oc(=O)cc(Cn3cc(Cn4cnc5c4c(=O)n(C)c(=O)n5C)nn3)c2c1",
    "label-class": "inactive"
  },
  {
    "compound": "CCC1=C[C@@H]2CN(C1)Cc1c([nH]c3ccccc13)[C@@](C(=O)OC)(c1cc3c(cc1OC)N(C)[C@H]1[C@@](O)(C(=O)OC)[C@H](OC(C)=O)[C@]4(CC)[C@@H]5C[C@@H]5CN5CC[C@]31[C@@H]54)C2",
    "label-class": "inactive"
  },
  {
    "compound": "OC(c1ccccc1)c1nnc(SCc2ccccc2)n1Cc1ccccc1 (stereo not drawn)",
    "label-class": "inactive"
  },
  {
    "compound": "CC(C)CCNCC(O)Cn1c2ccccc2c2ccccc21 (stereo not drawn)",
    "label-class": "inactive"
  },
  {
    "compound": "O=C(Nc1ccc(N2CCNCC2)cc1)c1[nH]ncc1Nc1cc(C2CC2)ncn1",
    "label-class": "inactive"
  },
  {
    "compound": "CNC(=O)c1cc(Oc2ccc(CC(=O)Nc3cc(C(C)(C)C)cn3C)cc2)ccn1",
    "label-class": "inactive"
  },
  {
    "compound": "COc1ccc(S(=O)(=O)N(Cc2ccc3c(n2)C=CC(C)(C)O3)C2CCC2)cc1OC",
    "label-class": "active"
  }
]

====

- Test system: EKVX NSCLC
- protocol-summary: NCI-60 one-dose screen, 48 h (100 = growth as untreated, 0 = no growth, -100 = all killed)
- experimental-setup: 10 µM unless noted
This is part of a sample that, as a whole, favours compounds with a hit. Of some 83,000 tested, about 20% had one in any assay.
Lab note: anything with growth below 50% is marked satisfied; values at 50% or higher are marked not satisfied.

[
  {
    "molecule": "O=C(Nc1ccc(N2CCNCC2)cc1)c1[nH]ncc1Nc1ncnc2sc3c(c12)CCC3",
    "label-class": "satisfied"
  },
  {
    "molecule": "COc1ccc(Cn2cc(Cn3c(=O)c(-c4nc5ccccc5[nH]4)cc4ccccc43)nn2)c(OC)c1OC",
    "label-class": "satisfied"
  },
  {
    "molecule": "O=c1c2cc(F)ccc2sc2c(NCCCNCCO)nc3ccc(Cl)cc3c12",
    "label-class": "not satisfied"
  },
  {
    "molecule": "S=C1NC2(c3ccccc3)CCC(=S)N2c2ccccc21 (stereo not given)",
    "label-class": "not satisfied"
  },
  {
    "molecule": "CNCCNc1nc2ccccc2c2c(=O)c3cccc(C)c3sc12",
    "label-class": "satisfied"
  }
]

====

- System: EKVX NSCLC
- protocol-summary: NCI-60 one-dose screen, 48 h (100 = growth as untreated, 0 = no growth, -100 = all killed)
- experimental-setup: 10 µM unless noted
This is part of a sample that, as a whole, favours compounds with a hit. Of some 83,000 tested, about 20% had one in any assay.
Entries annotated with measured growth
observable: growth (%)

[
  {
    "compound": "O=S1(=O)N(Cc2ccccc2)[C@@H](Cc2ccccc2)C2O[C@H]2[C@H](Cc2ccccc2)N1Cc1ccccc1 (some centres undefined)",
    "tested-target": "EKVX NSCLC",
    "reported-measurement": 24
  },
  {
    "compound": "COc1cc(/C=C2\\CCC/C(=C\\c3cc(CN4CCCCC4)c(O)c(OC)c3)C2=O)cc(CN2CCCCC2)c1O",
    "tested-target": "EKVX NSCLC",
    "reported-measurement": 87.3
  },
  {
    "compound": "CC(=O)O[C@@H]1/C=C/C(=O)N[C@@H](C)CCC/C=C/[C@@H]2CCC[C@H]21",
    "tested-target": "EKVX NSCLC",
    "reported-measurement": 116
  },
  {
    "compound": "COC(=O)/C(CCC=C(C)C)=C1\\[C@@H](OC(C)=O)C[C@@]2(C)[C@H]1CC(=O)[C@H]1[C@@]3(C)CC[C@H](NCc4ccccc4)[C@@H](C)[C@@H]3CC[C@@]12C",
    "tested-target": "EKVX NSCLC",
    "reported-measurement": 87.9
  },
  {
    "compound": "COc1cc2nc(-c3cccc4cccnc34)nc(NC3CCN(Cc4ccccc4)CC3)c2cc1OC",
    "tested-target": "EKVX NSCLC",
    "reported-measurement": -66.2
  },
  {
    "compound": "CCN1C(=O)N(CC)C2Nn3c(s/c(=C\\c4ccccc4F)c3=O)=NC21 (centres undefined)",
    "tested-target": "EKVX NSCLC",
    "reported-measurement": 38.4
  },
  {
    "compound": "COc1ccc(/C=C2\\CCC/C(=C\\c3ccc(OC)c(OC)c3)C2=O)cc1OC",
    "tested-target": "EKVX NSCLC",
    "reported-measurement": 25.9
  },
  {
    "compound": "COc1cc2nc(NC3CCCC3)nc(NC3CCN(C(C)C)CC3)c2cc1OC",
    "tested-target": "EKVX NSCLC",
    "reported-measurement": 81.6
  },
  {
    "compound": "O=C(NCc1ccco1)C1CN(c2ccc(Cl)cc2)N(c2ccc(Cl)cc2)C1=O (centres undefined)",
    "tested-target": "EKVX NSCLC",
    "reported-measurement": 65.5
  },
  {
    "compound": "CN1CCN(Cc2ccc(C(=O)Nc3cncc(C#Cc4cnc5cccnn45)c3)cc2C(F)(F)F)CC1",
    "tested-target": "EKVX NSCLC",
    "reported-measurement": 75
  },
  {
    "compound": "O=C1c2cc(Br)ccc2Oc2cc([N+](=O)[O-])ccc2N1c1ccc(I)cc1F",
    "tested-target": "EKVX NSCLC",
    "reported-measurement": 91.9
  },
  {
    "compound": "CSc1nc2c(c(=O)[nH]1)N=C1c3ccccc3C(=O)C1C(c1ccc(F)cc1)N2 (centres undefined)",
    "tested-target": "EKVX NSCLC",
    "reported-measurement": 74.8
  },
  {
    "compound": "O=C(Cn1cc(COc2ncnc3c2cnn3-c2ccccc2)nn1)Nc1cccc2ccccc12",
    "tested-target": "EKVX NSCLC",
    "reported-measurement": 85.5
  },
  {
    "compound": "COc1ccc(CCN2C(=O)CCSC2=S)cc1",
    "tested-target": "EKVX NSCLC",
    "reported-measurement": 101
  },
  {
    "compound": "CCN1CCN(C(=S)SCC(=O)Nc2nc3ccc(C)cc3s2)CC1",
    "tested-target": "EKVX NSCLC",
    "reported-measurement": 122
  },
  {
    "compound": "O=C(CCc1nnc2sc(Cc3ccccc3Cl)nn12)c1nc2ncccc2[nH]1",
    "tested-target": "EKVX NSCLC",
    "reported-measurement": 94.6
  },
  {
    "compound": "CN1C(=O)N(C)C2Nn3c(s/c(=C4\\C(=O)N(CCc5ccccc5)c5ccccc54)c3=O)=NC21 (centres undefined)",
    "tested-target": "EKVX NSCLC",
    "reported-measurement": 58
  },
  {
    "compound": "Cc1cc(OC(=O)c2ccc([N+](=O)[O-])cc2)nc2[nH]c(=O)sc12",
    "tested-target": "EKVX NSCLC",
    "reported-measurement": 92.1
  },
  {
    "compound": "O=C1NC(=O)C(=Cc2cn(Cc3cn(Cc4ccc(Cl)cc4Cl)nn3)c3ccccc23)C(=O)N1",
    "tested-target": "EKVX NSCLC",
    "reported-measurement": 104
  },
  {
    "compound": "Oc1[nH]c2ccccc2c1N=Nc1nnc2n1N=C(c1ccccc1)CS2",
    "tested-target": "EKVX NSCLC",
    "reported-measurement": 87.7
  },
  {
    "compound": "O=C(Nc1ccc(N2CCNCC2)cc1)c1[nH]ncc1Nc1cc(C2CC2)ncn1",
    "tested-target": "EKVX NSCLC",
    "reported-measurement": 69.8
  },
  {
    "compound": "CC(C)Cn1c2c(c(=S)[nH]c1=O)CCC2",
    "tested-target": "EKVX NSCLC",
    "reported-measurement": 102
  },
  {
    "compound": "O=C(Nc1ccc(I)cc1F)c1cc(F)ccc1O",
    "tested-target": "EKVX NSCLC",
    "reported-measurement": 5.82
  },
  {
    "compound": "COc1ccc(S(=O)(=O)N(Cc2ccc3c(n2)C=CC(C)(C)O3)C2CCC2)cc1OC",
    "tested-target": "EKVX NSCLC",
    "reported-measurement": -22.5
  },
  {
    "compound": "COC(=O)/C(=C\\c1c(-c2ccccc2)[nH]c2ccccc12)S(C)(=O)=O",
    "tested-target": "EKVX NSCLC",
    "reported-measurement": 58
  },
  {
    "compound": "O=Cc1cc2ccccc2nc1Nc1nccs1",
    "tested-target": "EKVX NSCLC",
    "reported-measurement": 98.5
  },
  {
    "compound": "O=C1Nc2ccccc2/C1=C/c1ccc[nH]1",
    "tested-target": "EKVX NSCLC",
    "reported-measurement": 32.8
  },
  {
    "compound": "Clc1ccc(Oc2ccc(Nc3ncnc4onc(-c5ccccc5)c34)cc2)c(Cl)c1",
    "tested-target": "EKVX NSCLC",
    "reported-measurement": 103
  },
  {
    "compound": "COc1cc(/C(C#N)=C/c2nc3c(N4CCOCC4)nc(Cl)nc3n2C)cc(OC)c1OC",
    "tested-target": "EKVX NSCLC",
    "reported-measurement": 35.2
  },
  {
    "compound": "Cc1ccc(C2CC(c3ccc(Nc4nc(NCCO)nc(Nc5ccc(Cl)cc5)n4)cc3)=NN2c2cc(Cl)cc(Cl)c2)cc1 (centres undefined)",
    "tested-target": "EKVX NSCLC",
    "reported-measurement": 82.7
  },
  {
    "compound": "COc1cc(C2C(C#N)=C(N)OC3=C2C(=O)c2ccccc2C3=O)cc(OC)c1O (centres undefined)",
    "tested-target": "EKVX NSCLC",
    "reported-measurement": 78.9
  },
  {
    "compound": "CC/C(=C(\\CC)c1ccc(OCC[N+](C)(C)C)cc1)c1ccc(OC)cc1",
    "tested-target": "EKVX NSCLC",
    "reported-measurement": 95.6
  },
  {
    "compound": "O=c1c2cc(F)ccc2sc2c(NCCN3CCCC3)nc3ccccc3c12",
    "tested-target": "EKVX NSCLC",
    "reported-measurement": 66.2
  },
  {
    "compound": "Cc1ccc(NC2=CC(=O)C(=O)c3ccccc32)c(C)c1",
    "tested-target": "EKVX NSCLC",
    "reported-measurement": 143
  },
  {
    "compound": "Cn1cc(-c2ccc3ncc(-c4ccc(CC(=O)Nc5cc(C(C)(C)C)no5)cc4)nc3c2)cn1",
    "tested-target": "EKVX NSCLC",
    "reported-measurement": 50
  },
  {
    "compound": "CCN(CC)CCNC(=O)C(Cl)=C1C(Cl)=C(Cl)C(Cl)=C1Cl",
    "tested-target": "EKVX NSCLC",
    "reported-measurement": 87.8
  },
  {
    "compound": "COC(=O)C1(C)CCC[C@]2(C)[C@H]3C[C@H]4C(C(C)C)=C[C@]3(CC[C@@H]12)[C@H]1[C@@H]4[C@@H](OCC#CCN2CCOCC2)CC[C@@H]1OCC#CCN1CCOCC1 (some centres undefined)",
    "tested-target": "EKVX NSCLC",
    "reported-measurement": 67.2
  },
  {
    "compound": "O=C(NN1C(=O)CSC1c1ccc(Cl)cc1)c1[nH]c2ccc(F)cc2c1-c1ccccc1 (centres undefined)",
    "tested-target": "EKVX NSCLC",
    "reported-measurement": 49.3
  },
  {
    "compound": "CC(C)CCOc1ccc(-c2n[nH]c(C(F)(F)F)c2-c2cncc(C#N)c2)c(O)c1",
    "tested-target": "EKVX NSCLC",
    "reported-measurement": 3.52
  }
]
